The values you see were collected from patent US20190345225A1.

# system: T1, BMP-9 (UniProt Q9UK05 320-429)
# T1 construct: also called bone morphogenetic protein 9
# T1 sequence (looked up): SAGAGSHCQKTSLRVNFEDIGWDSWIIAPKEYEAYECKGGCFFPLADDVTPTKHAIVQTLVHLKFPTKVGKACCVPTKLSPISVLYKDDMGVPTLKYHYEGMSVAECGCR
# assayText: SPR, Biacore 3000; receptor fusion captured on chip, ligand in solution
Kd values, listed per item
// note: answer is a bare numeric in nM

| binder | observedValue |
| --- | --- |
| extracellular ActRIIa/b variant (SEQ ID NO: 69) fused to the N-terminus of hFc through a GGG linker (Fc fusion, also called ActRIIA/B-Fc; not shown: human Fc (hFc)) GAILGRSETQECLFYNANWELERTNQTGVERCEGEKDKRLHCYATWRNISGSIEIVKKGCWLDDFNCYDRTDCVETEENPQVYFCCCEGNMCNEKFSYFPEMEVTQPTSGGG | 4 |

Continue with the binder presented below.
For reference, reported Kd for ActRIIa/bmax2 (SEQ ID NO: 71) fused to the N-terminus of hFc through a GGG linker (Fc fusion, also called ActRIIa/bmax2 variant; not shown: human Fc (hFc)) GAILGRSETQECLFYNANWELERTNQTGVERCEGEKDKRLHCYATWRNISGSIEIVKKGCWLDDFNCYDRTDCVETEENPQVYFCCCEGNMCNEKFSYFPEMEVTQPTSNPGGG stands at 5
